- tested_target: JAK1 (Homo sapiens, UniProt P23458)
- Construct: made in house; host or cells: SF9 insect cells (baculovirus)
- Sequence (P23458 852-1154): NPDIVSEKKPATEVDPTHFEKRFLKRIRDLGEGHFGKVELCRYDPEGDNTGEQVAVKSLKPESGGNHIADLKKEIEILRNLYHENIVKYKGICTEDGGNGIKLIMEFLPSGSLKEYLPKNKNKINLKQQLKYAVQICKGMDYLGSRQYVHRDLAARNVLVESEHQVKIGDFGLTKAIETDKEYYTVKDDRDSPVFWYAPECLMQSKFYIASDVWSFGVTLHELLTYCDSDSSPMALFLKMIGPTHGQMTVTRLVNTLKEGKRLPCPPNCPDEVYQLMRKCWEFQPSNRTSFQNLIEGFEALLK
- protocol: JAK1 inhibition (Table 4)
- Type: biochemical
- condition_label: read-out: JAK1 Ki
quantity_measured: Ki (nM)

Worked examples follow.
compound	Ki, nM
OCCc1nc2cnc3[nH]ccc3c2n1[C@H]1CCCOC1	10.1
O=C([C@@H]1CCCN1)N1CCC(n2cnc3cnc4[nH]ccc4c32)CC1	48.6
COC[C@H](C)n1c(C)nc2cnc3[nH]ccc3c21	46.3
CC(C1CCCO1)n1cnc2cnc3[nH]ccc3c21 (single isomer, unassigned) [Example 418]	34.8

I. Cc1nc2cnc3[nH]ccc3c2n1C1CCC(NS(C)(=O)=O)C1 (racemic)
II. C[C@@H](O)c1nc2cnc3[nH]ccc3c2n1C1CCN(C2(CC#N)COC2)CC1
III. O=C(Cc1nc2cnc3[nH]ccc3c2n1C1CCNCC1)N1CCS(=O)(=O)CC1
IV. Cc1n[nH]c(C)c1CCc1nc2cnc3[nH]ccc3c2n1C1CCOCC1
V. COC(=O)N1CCC(n2c([C@@H](C)O)nc3cnc4[nH]ccc4c32)CC1
**Q:** Order the 5 compounds from highest to lowest Ki. Give the labels in the order requested.
**A:** IV, V, II, III, I
(IV: 278 nM, V: 106 nM, II: 39.4 nM, III: 21.2 nM, I: 1.09 nM)

----------
- tested_target: JAK3 (Homo sapiens)
- Construct: made in house; host or cells: SF9 insect cells (baculovirus)
- protocol: JAK3 inhibition (Table 4)
- Type: biochemical
- condition_label: read-out: JAK3 Ki
quantity_measured: Ki (nM)

compound	Ki (nM)
O=C(Cc1nc2cnc3[nH]ccc3c2n1C1CCN(Cc2ccccc2)CC1)N1CCS(=O)(=O)CC1	9.7

I. O=C(CC(F)(F)F)NC1CCC(n2cnc3cnc4[nH]ccc4c32)C1 (racemic)
II. CN1CC(c2nc3cnc4[nH]ccc4c3n2C2CCN(CCC#N)CC2)CC1=O (racemic)
III. COC[C@H]1CC[C@H](n2c(CO)nc3cnc4[nH]ccc4c32)CC1
IV. Cc1cc(Cc2nc3cnc4[nH]ccc4c3n2C2CCOCC2)on1
V. C[C@@H](O)c1nc2cnc3[nH]ccc3c2n1C1CCN(Cc2ccn(C)n2)CC1
**Q:** Reorder the items by Ki, least to greatest. Give the labels in the order requested.
**A:** I, III, II, V, IV

I. O=C(NC1CCC(n2nnc3cnc4[nH]ccc4c32)C1)OCC(F)(F)F (racemic)
II. Cc1nc2cnc3[nH]ccc3c2n1C1CCC(NCC(F)(F)F)C1 (racemic)
**Q:** Compare the recorded Ki of I and II ; state which is larger. Could you answer with the label of the item you picked?
**A:** II

a. OCc1nc2cnc3[nH]ccc3c2n1C1CCN(CCC(F)(F)F)CC1
b. O=S1(=O)CCCN1Cc1nc2cnc3[nH]ccc3c2n1C1CCCCC1
c. N#CCC(=O)N1CCC(n2cnc3cnc4[nH]ccc4c32)CC1
d. C[C@@H](O)c1nc2cnc3[nH]ccc3c2n1[C@@H]1CCCN(C(=O)CC2CC2)C1
e. CN1CCOCC1C(=O)N1CCC(n2cnc3cnc4[nH]ccc4c32)CC1 (single isomer, unassigned) [Example 197]
**Q:** Order the 5 compounds from highest to lowest Ki. Give the labels in the order requested.
**A:** e, d, c, b, a
(e: 3240 nM, d: 822 nM, c: 162 nM, b: 57.5 nM, a: 21.7 nM)

1. Cc1nc2cnc3[nH]ccc3c2n1C1CCC(F)(F)CC1
2. CC(=O)N(C)CCc1nc2cnc3[nH]ccc3c2n1C1CCN(C(C)CC#N)CC1 (racemic)
3. COC(=O)N[C@@H]1CC[C@@H](n2c(C)nc3cnc4[nH]ccc4c32)C1
**Q:** Reorder the items by Ki, least to greatest. Give the labels in the order requested.
**A:** 1, 3, 2
(1: 17 nM, 3: 54.6 nM, 2: 179 nM)

----------
- tested_target: JAK3 (Homo sapiens, UniProt P52333)
- Construct: made in house; host or cells: SF9 insect cells (baculovirus)
- Sequence (P52333 783-1124): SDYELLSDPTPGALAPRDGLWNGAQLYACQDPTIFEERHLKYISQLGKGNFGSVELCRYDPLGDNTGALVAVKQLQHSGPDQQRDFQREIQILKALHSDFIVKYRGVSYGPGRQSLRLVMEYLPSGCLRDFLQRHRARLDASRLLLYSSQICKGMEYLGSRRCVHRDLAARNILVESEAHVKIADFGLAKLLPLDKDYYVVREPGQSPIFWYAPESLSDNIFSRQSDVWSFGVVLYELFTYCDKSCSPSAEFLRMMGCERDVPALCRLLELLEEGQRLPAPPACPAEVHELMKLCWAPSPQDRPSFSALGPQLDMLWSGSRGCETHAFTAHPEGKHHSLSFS
- protocol: JAK3 inhibition (Table 4)
- Assay type: biochemical
- condition_label: read-out: JAK3 Ki
pKi: −log10 of the molar value.
quantity_measured: pKi

compound	tested_target	pKi
FC(F)(F)CCN1CCC(n2cnc3cnc4[nH]ccc4c32)CC1	JAK3 (Homo sapiens, UniProt P52333)	7.39
O=C(Cc1ccccc1)N1CCC(n2cnc3cnc4[nH]ccc4c32)CC1	JAK3 (Homo sapiens, UniProt P52333)	6.55
CC(C)(C#N)C(=O)N1CCC(n2cnc3cnc4[nH]ccc4c32)CC1	JAK3 (Homo sapiens, UniProt P52333)	6.37

1. CC(C)(O)Cc1nc2cnc3[nH]ccc3c2n1C1CCNCC1
2. CC(=O)N1CCC(c2nc3cnc4[nH]ccc4c3n2C2CCN(C(C)CC#N)CC2)CC1 (racemic)
3. Cc1nc2cnc3[nH]ccc3c2n1C1CCC(C)(O)CC1 (stereo not drawn)
**Q:** Order the 3 compounds from highest to lowest pKi. Give the labels in the order requested.
**A:** 3, 2, 1
(3: 7.77, 2: 6.55, 1: 5.41)

----------
- tested_target: JAK2 (Homo sapiens, UniProt O60674)
- Construct: made in house; host or cells: SF9 insect cells (baculovirus)
- Sequence (O60674 812-1132): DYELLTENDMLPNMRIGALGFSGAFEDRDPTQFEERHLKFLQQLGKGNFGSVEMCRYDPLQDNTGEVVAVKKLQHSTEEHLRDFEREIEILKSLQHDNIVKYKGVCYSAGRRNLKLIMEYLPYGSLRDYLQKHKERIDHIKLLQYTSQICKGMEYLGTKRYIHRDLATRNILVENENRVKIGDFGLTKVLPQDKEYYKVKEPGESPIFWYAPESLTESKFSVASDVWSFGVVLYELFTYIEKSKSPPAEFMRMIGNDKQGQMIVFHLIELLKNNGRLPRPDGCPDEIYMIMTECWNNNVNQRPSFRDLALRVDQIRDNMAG
- protocol: JAK2 inhibition (Table 4)
- Assay type: biochemical
- condition_label: read-out: JAK2 Ki
quantity_measured: Ki (nM)

Worked examples follow.
compound	Ki / nM
COC(=O)N[C@H]1CC[C@H](n2cnc3cnc4[nH]ccc4c32)CC1	14.1
N#CCC(=O)N1CCCCC(n2cnc3cnc4[nH]ccc4c32)C1 (racemic)	6.23
N#CCC(=O)N1CC(n2cnc3cnc4[nH]ccc4c32)C1	315
CCN1CC[C@@H](n2c([C@@H](C)O)nc3cnc4[nH]ccc4c32)[C@@H](F)C1	148

I. CC1CC1COCc1nc2cnc3[nH]ccc3c2n1C1CCN(CCC#N)CC1 (stereo not drawn)
II. N#CC1CCC(n2c(CO)nc3cnc4[nH]ccc4c32)CC1 (stereo not drawn)
III. CN(C)C(=O)N[C@H]1CC[C@H](n2cnc3cnc4[nH]ccc4c32)CC1
IV. CC1(n2cnc3cnc4[nH]ccc4c32)CCN(C(=O)CC#N)CC1
V. C[C@@H](O)c1nc2cnc3[nH]ccc3c2n1[C@@H]1CCCN(C(=O)C2CCOCC2)C1
**Q:** Reorder the items by Ki, least to greatest. Give the labels in the order requested.
**A:** II, III, I, IV, V

----------
- tested_target: JAK1 (Homo sapiens, UniProt P23458)
- Construct: made in house; host or cells: SF9 insect cells (baculovirus)
- protocol: JAK1 inhibition (Table 4)
- Format: biochemical
- condition_label: read-out: JAK1 Ki
quantity_measured: Ki (µM)

molecule	Ki / µM
Cc1nc2cnc3[nH]ccc3c2n1C1(C)CCN(Cc2ccnc(C#N)c2)CC1 [Example 758]	0.0408
COCCOC(=O)N[C@H]1CC[C@H](n2cnc3cnc4[nH]ccc4c32)CC1 [Example 356]	0.0106
Cn1cc(CN2CCC(n3cnc4cnc5[nH]ccc5c43)CC2)cn1 [Example 68]	0.021

P. C[C@H](O)c1nc2cnc3[nH]ccc3c2n1C1CCCOC1 (single isomer, unassigned) [Example 461]
Q. O=C(Cc1nc2cnc3[nH]ccc3c2n1C1CCN(Cc2ccccc2)CC1)N1CCOCC1 [Example 23]
R. c1cnc(N2CCC(n3cnc4cnc5[nH]ccc5c43)CC2)cn1 [Example 72]
S. C#CCCN1CCC(n2c([C@@H](C)O)nc3cnc4[nH]ccc4c32)CC1 [Example 871]
**Q:** Order the 4 molecules from highest to lowest Ki. Give the labels in the order requested.
**A:** P, S, Q, R
(P: 0.354 µM, S: 0.0597 µM, Q: 0.00622 µM, R: 0.00426 µM)

----------
- tested_target: JAK3 (Homo sapiens, UniProt P52333)
- Construct: made in house; host or cells: SF9 insect cells (baculovirus)
- protocol: JAK3 inhibition (Table 4)
- Assay type: biochemical
- condition_label: read-out: JAK3 Ki
quantity_measured: Ki (µM)

Worked examples follow.
molecule	quantitative_result
N#CCC(=O)N1CCC[C@@H](n2nnc3cnc4[nH]ccc4c32)C1	0.0245
COc1ccc(CN2CCC[C@@H](n3cnc4cnc5[nH]ccc5c43)C2)cc1	0.414
CC(O)c1nc2cnc3[nH]ccc3c2n1C1CCN(Cc2csc(C(F)(F)F)n2)CC1 (racemic)	0.0314
N#CCCN1CCC(n2c(Cc3cccnc3)nc3cnc4[nH]ccc4c32)CC1	0.0242
FC1CNCCC1n1nnc2cnc3[nH]ccc3c21 (racemic) [Example 518]	1.45
O=C(CS(=O)(=O)c1ccccc1)N1CCC[C@@H](n2cnc3cnc4[nH]ccc4c32)C1	0.232
COC1CN(CCC#N)CCC1n1c(C)nc2cnc3[nH]ccc3c21 (racemic)	0.00401
CC(C)N[C@H]1CC[C@H](n2cnc3cnc4[nH]ccc4c32)CC1	0.303
CC(C)S(=O)(=O)NCc1nc2cnc3[nH]ccc3c2n1C1CCN(CCC#N)CC1	0.0977
CC1(n2cnc3cnc4[nH]ccc4c32)CCCN(C(=O)CC#N)C1 (racemic)	0.0206

1. CC(C)(C)OC(=O)NC1CCCC(n2cnc3cnc4[nH]ccc4c32)C1 (single isomer, unassigned) [Example 475]
2. CCc1nccn1CCc1nc2cnc3[nH]ccc3c2n1C1CCN(CCC#N)CC1
3. N#Cc1ccc(S(=O)(=O)N2CCC[C@@H](n3cnc4cnc5[nH]ccc5c43)C2)cc1
4. CNC(=O)OC1CCC(n2cnc3cnc4[nH]ccc4c32)CC1 (stereo not shown)
**Q:** Order the 4 molecules from highest to lowest Ki. Give the labels in the order requested.
**A:** 2, 4, 3, 1
(2: 0.191 µM, 4: 0.104 µM, 3: 0.0372 µM, 1: 0.0219 µM)
